As shown below, each of these compounds has a reported mortality at 200 ppm value.
Test system: Diabrotica balteata, (Corn root worm)
Method: Diabrotica balteata maize sprout spray test, L2 larvae
Type: in vivo
Setup Conditions: 96 h, application rate of 200 ppm, 4 days after infestation, L2 larvae, read-out: mortality

For orientation, consider the following solved cases.
1. Cn1nc(C(F)(F)C(F)(F)F)c(C(F)(F)F)c1-c1cc(-c2ccc(Cl)c(C(=O)NCCC(F)(F)F)c2)on1 [Compound 83]	≥ 80%
2. Cn1nc(-c2c(C(F)(F)F)c(C(F)(F)C(F)(F)F)nn2C)cc1-c1ccc(Cl)c(C(=O)NC2CC2)c1 [Compound 41]	≥ 80%

Now look at this entry.
Measured mortality at 200 ppm, CC(C)CNC(=O)c1cc(-c2cc(-c3c(C(F)(F)F)c(C(F)(F)C(F)(F)F)nn3C)no2)ccc1Cl [Compound 87] : ≥ 80%

These measurements were taken from patent EP3325465B1.
